target: Fibroblast growth factor 10 (Homo sapiens); test: FGF10 binders on small-molecule microarrays, primary screen, biochemical, small-molecule microarray, 635 nm fluorescence (AID 1102); conditions: FGF10 binding, fluorescence 635 nm, higher = more signal
Binned composite z-score; ranges: bucket 1 (below 0.5), bucket 2 (0.5 to below 1), bucket 3 (1 or more)

- compound: "O=C1c2ccccc2[C@](Cc2ccccc2I)(C(=O)NCC(F)(F)F)[C@H](c2ccc(CO)cc2)N1Cc1ccccc1Cl"
  targetDesc: "Fibroblast growth factor 10 (Homo sapiens)"
  class: "bucket 2"
- compound: "C=C(CCCC)/C(=C/C[C@@H](OC(=O)c1ccncc1)c1ccc(OCCO)cc1)c1cc(C(=O)OC)ccc1OC"
  targetDesc: "Fibroblast growth factor 10 (Homo sapiens)"
  class: "bucket 2"
- compound: "CC1(C)C2C=C(C(O)C3C=CC4C(=O)NC(=O)C4N3Nc3ccc(Cl)cc3Cl)C[C@@H]1C2 (some centres undefined)"
  targetDesc: "Fibroblast growth factor 10 (Homo sapiens)"
  class: "bucket 2"
- compound: "CC(=O)NCCCC[C@@H]1NC(=O)[C@H]2C[C@@H](C(=O)NCCCCCCNC(=O)CS)[C@@H](c3ccc(O)cc3)N2C1=O"
  targetDesc: "Fibroblast growth factor 10 (Homo sapiens)"
  class: "bucket 1"
- compound: "COc1cc2c(cc1OC)CN(C(=O)[C@H]1[C@@H]3C(=O)O[C@@H](c4ccccc4)[C@@H](c4ccccc4)N3[C@@H](c3ccc(O)cc3)[C@]13C(=O)Nc1ccccc13)CC2"
  targetDesc: "Fibroblast growth factor 10 (Homo sapiens)"
  class: "bucket 2"
- compound: "COC(=O)[C@@]1(Cc2ccc(OC)cc2)[C@H]2c3cc(C(=O)N(C)C)n(CCc4ccccn4)c3C[C@H]2CN1C(=O)c1ccccc1"
  targetDesc: "Fibroblast growth factor 10 (Homo sapiens)"
  class: "bucket 1"
- compound: "O=C(OCc1ccccc1)C1=CCC2c3[nH]c4ccccc4c3C(=O)C1N2S(=O)(=O)c1ccccc1[N+](=O)[O-] (centres undefined)"
  targetDesc: "Fibroblast growth factor 10 (Homo sapiens)"
  class: "bucket 3"
- compound: "C=C(C(=O)CC[C@@H](OC(=O)c1cccnc1)c1ccccc1OCCO)C(C)C"
  targetDesc: "Fibroblast growth factor 10 (Homo sapiens)"
  class: "bucket 2"
- compound: "O=C(N1CCCCC1)[C@]1(Cc2ccccc2)N=C(c2ccc(OCCCO)cc2)O[C@@H]1c1ccccc1"
  targetDesc: "Fibroblast growth factor 10 (Homo sapiens)"
  class: "bucket 2"
- compound: "COCCOC(=O)N1C(=O)[C@@]2(c3cc(C#CCC(C(=O)OC)C(=O)OC)ccc31)[C@H](C(=O)N1CCN(c3ncccn3)CC1)[C@H]1C(=O)O[C@H](c3ccccc3)[C@H](c3ccccc3)N1[C@@H]2c1ccccc1OCCO"
  targetDesc: "Fibroblast growth factor 10 (Homo sapiens)"
  class: "bucket 3"
- compound: "CCS[C@H]1[C@@H](C(=O)O)[C@H](c2ccc(C)cc2)N(S(=O)(=O)c2ccc(C)cc2)[C@@H]1CC"
  targetDesc: "Fibroblast growth factor 10 (Homo sapiens)"
  class: "bucket 3"
- compound: "COC(=O)[C@@]1(Cc2ccc(F)cc2)[C@H]2c3cc(C(=O)N(C)C)n(Cc4ccc(Cl)c(C(F)(F)F)c4)c3C[C@H]2CN1C(=O)c1ccccc1"
  targetDesc: "Fibroblast growth factor 10 (Homo sapiens)"
  class: "bucket 1"
- compound: "CC(CO)N1C(=O)[C@@H]2C3C(=O)OCCC/C=C\\[C@H]3OC23C=CCN(C(C)(C)C)C(=O)[C@@H]13 (some centres undefined)"
  targetDesc: "Fibroblast growth factor 10 (Homo sapiens)"
  class: "bucket 1"

Where do the numbers come from? From PubChem BioAssay.
